biological target: Proteasome subunit beta (Trypanosoma cruzi) (UniProt O96673); assay: Trypanosoma cruzi proteasome chymotrypsin-like activity (TcProtChymo) assay.; type: functional; set-up: scale not given: in the data most compounds retested in dose-response had high values; settings: 9.37 µM
Sequence (O96673 as listed by the source): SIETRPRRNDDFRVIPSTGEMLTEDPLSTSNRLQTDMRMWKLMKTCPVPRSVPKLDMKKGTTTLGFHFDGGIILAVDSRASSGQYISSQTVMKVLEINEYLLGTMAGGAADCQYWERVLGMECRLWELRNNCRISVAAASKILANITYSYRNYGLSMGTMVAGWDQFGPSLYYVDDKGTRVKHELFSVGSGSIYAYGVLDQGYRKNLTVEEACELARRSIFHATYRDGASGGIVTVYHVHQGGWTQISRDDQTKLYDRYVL
Measured Percent Effect of individual entries
Record the value in %, omitting the unit from your answer.

Below: 3 compounds and their reported Percent Effect.
>>> print(df.to_string())
                                   compound  parameter_measured  unit_tag  value
0  COc1cc(CNCC(O)c2ccc(C)cc2)cc2c1OCCO2 (stereo not given)      Percent Effect         %   16.3
1  O=C(Cc1cccs1)N1C[C@@H]2OCCN(CC3CCCC3)[C@@H]2C1      Percent Effect         %   4.37
2       CN1CCC2(CC1)C(=O)N(CC1CC1)c1ccccc12      Percent Effect         %   1.12

Q: Could you tell me which Percent Effect is on file for `COC[C@@H]1CCC[C@]12CN(Cc1cccc(C)n1)CCO2` ?
Ans: 15.3

Q: Could you tell me which Percent Effect is on file for `Cc1noc(C)c1CN1CCO[C@H]2CN(CC3CC3)C[C@H]21` ?
Ans: 18.4

Q: Could you tell me which Percent Effect is on file for `Cn1cc(CN2C[C@@H]3[C@@H](C2)OCC(=O)N3Cc2ccncc2)cn1` ?
Ans: 15.8

Q: Could you tell me which Percent Effect is on file for `CN(C)[C@@H]1CCN(C(=O)Cc2ccc(F)cc2)[C@H]1Cc1cnn(C)c1` ?
Ans: 12.8

Q: Could you tell me which Percent Effect is on file for `O=C([C@H]1C[C@H]2OCC[C@H]2N(Cc2ccncc2)C1)N1CCCCO1` ?
Ans: 15.9

Q: Could you tell me which Percent Effect is on file for O=C1CC2(CCN(Cc3ccccn3)C2)CN1c1cncnc1 (stereo not given) ?
Ans: 16.1

Q: Could you tell me which Percent Effect is on file for `COc1ccc2c(ccn2CCN)c1` ?
Ans: 6.65

Q: Could you tell me which Percent Effect is on file for CN(C)c1ncc2c(n1)C1(CCN(CC3CC3)C1)COC2 (stereo not given) ?
Ans: 13.1

Q: Could you tell me which Percent Effect is on file for `O=C(Cc1ccccn1)N1CCN2C[C@H](Oc3cccc(F)c3)C[C@H]2C1` ?
Ans: 1.84

Q: Could you tell me which Percent Effect is on file for `Fc1cnc(N2CCO[C@H]3CN(CC4CCC4)C[C@H]32)nc1` ?
Ans: 14.5

Q: Could you tell me which Percent Effect is on file for `Cc1c(CC(=O)N2CCN(CC(F)(F)F)CC2)nnn1-c1ccccc1` ?
Ans: 10.8

Q: Could you tell me which Percent Effect is on file for `O=C(c1ccc2c(c1)COC2)N1CCC(Nc2ccccc2)CC1` ?
Ans: -4.05
